Data origin: ChEMBL document CHEMBL3593234

# EXPERIMENT DESCRIPTION: Inhibition of alpha-glucosidase (unknown origin)
# Parameters: species or system Homo sapiens
RESULT TYPE: pIC50
API: returns pIC50 as number; meaning -log10 of concentration in mol/L.

Item: C/C(=C\CC[C@@H](C)[C@H]1CC[C@@]2(C)C3=CC[C@H]4C(C)(C)[C@@H](O)CC[C@]4(C)C3=CC[C@]12C)CO [GANODEROL B] | pIC50: 3.92

---

# ASSAY TARGET: 3-hydroxy-3-methylglutaryl-coenzyme A reductase (Sus scrofa, UniProt Q1W675)
# EXPERIMENT DESCRIPTION: Inhibition of pig liver microsomes HMG-CoA reductase incubated for 5 mins in using HMG-CoA and NADPH by colorimetric method
RESULT TYPE: log10 of IC50 (log10 of the value in µM)
All values: base-10 log of IC50 in µM.

• C/C(=C/CC[C@@H](C)[C@H]1CC[C@@]2(C)C3=C(CC[C@]12C)[C@@]1(C)CCC(=O)C(C)(C)[C@@H]1CC3=O)C(=O)O (stereo in doubt; 18) [GANODERIC ACID DM] = 0.98
• C/C(=C/CC[C@@H](C)[C@H]1CC[C@@]2(C)C3=CC[C@H]4C(C)(C)C(=O)CC[C@]4(C)C3=CC[C@]12C)C(=O)O = 1.10
• CC(C)c1c(C(=O)Nc2ccccc2)c(-c2ccccc2)c(-c2ccc(F)cc2)n1CC[C@@H](O)C[C@@H](O)CC(=O)O = 1.51
• CC(=O)O[C@H]1C(=O)C2=C([C@@H](O)C[C@H]3[C@](C)(CO)C(=O)CC[C@]23C)[C@]2(C)C(=O)C[C@H]([C@H](C)CC/C=C(\C)C(=O)O)[C@@]12C = 1.99

So for C/C(=C\CC[C@@H](C)[C@H]1CC(=O)[C@@]2(C)C3=C(C(=O)C[C@]12C)[C@@]1(C)CCC(=O)[C@@](C)(COC(=O)C[C@@](C)(O)CC(=O)O)[C@@H]1CC3=O)C(=O)O , the logged log10 of IC50 turned out to be 1.12

---

# ASSAY TARGET: 3-hydroxy-3-methylglutaryl-coenzyme A reductase (Sus scrofa, UniProt Q1W675)
# Sequence (Q1W675 whole entry): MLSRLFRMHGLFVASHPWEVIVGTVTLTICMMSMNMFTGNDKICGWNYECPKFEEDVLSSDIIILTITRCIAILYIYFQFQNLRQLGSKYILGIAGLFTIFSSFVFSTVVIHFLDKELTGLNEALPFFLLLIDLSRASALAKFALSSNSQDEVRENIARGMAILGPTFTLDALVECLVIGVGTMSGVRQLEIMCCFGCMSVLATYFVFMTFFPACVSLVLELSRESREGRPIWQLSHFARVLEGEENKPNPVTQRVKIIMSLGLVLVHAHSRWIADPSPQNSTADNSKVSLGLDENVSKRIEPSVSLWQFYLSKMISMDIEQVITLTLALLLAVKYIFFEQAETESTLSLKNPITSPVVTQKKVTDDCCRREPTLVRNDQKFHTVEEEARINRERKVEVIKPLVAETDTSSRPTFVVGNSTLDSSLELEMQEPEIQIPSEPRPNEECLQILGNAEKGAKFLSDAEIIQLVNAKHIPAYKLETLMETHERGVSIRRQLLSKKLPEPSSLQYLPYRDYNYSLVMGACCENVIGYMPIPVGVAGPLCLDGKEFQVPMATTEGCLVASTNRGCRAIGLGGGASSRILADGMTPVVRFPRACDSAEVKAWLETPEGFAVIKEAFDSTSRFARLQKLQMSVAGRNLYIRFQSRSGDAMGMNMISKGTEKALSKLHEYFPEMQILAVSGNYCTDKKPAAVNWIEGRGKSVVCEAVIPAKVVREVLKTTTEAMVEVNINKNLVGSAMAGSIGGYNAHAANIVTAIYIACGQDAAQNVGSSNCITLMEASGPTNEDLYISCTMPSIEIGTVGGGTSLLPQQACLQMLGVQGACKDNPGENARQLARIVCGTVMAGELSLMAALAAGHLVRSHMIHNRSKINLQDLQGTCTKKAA
Reported values of IC50 for individual entries
Unit µM implied. Number only.

• C/C(=C\CC[C@@H](C)[C@H]1CC[C@@]2(C)C3=CC[C@H]4C(C)(C)[C@@H](O)CC[C@]4(C)C3=CC[C@]12C)C(=O)O [GANODERIC ACID Y] = 8.6

molecule C[C@H](CC[C@H](O)[C@](C)(O)CO)[C@H]1CC[C@@]2(C)C3=CC[C@H]4C(C)(C)C(=O)CC[C@]4(C)C3=CC[C@]12C [GANODERMANONTRIOL] , IC50 observed: 16.8

---

# Tested on: PC-3
# EXPERIMENT DESCRIPTION: Cytotoxicity against human PC3 cells by MTT method
# Type: functional, cell-based
# CONDITION: pc-3
RESULT TYPE: IC50

Lookup result for C/C(=C/CC[C@@H](C)[C@H]1CC[C@@]2(C)C3=C(CC[C@]12C)[C@@]1(C)CCC(=O)C(C)(C)[C@@H]1CC3=O)C(=O)O (stereo in doubt; 21) [GANODERIC ACID DM] ; measured IC50: 149 µM

---

# ASSAY TARGET: 3-hydroxy-3-methylglutaryl-coenzyme A reductase (Homo sapiens)
# Sequence (P04035 whole entry): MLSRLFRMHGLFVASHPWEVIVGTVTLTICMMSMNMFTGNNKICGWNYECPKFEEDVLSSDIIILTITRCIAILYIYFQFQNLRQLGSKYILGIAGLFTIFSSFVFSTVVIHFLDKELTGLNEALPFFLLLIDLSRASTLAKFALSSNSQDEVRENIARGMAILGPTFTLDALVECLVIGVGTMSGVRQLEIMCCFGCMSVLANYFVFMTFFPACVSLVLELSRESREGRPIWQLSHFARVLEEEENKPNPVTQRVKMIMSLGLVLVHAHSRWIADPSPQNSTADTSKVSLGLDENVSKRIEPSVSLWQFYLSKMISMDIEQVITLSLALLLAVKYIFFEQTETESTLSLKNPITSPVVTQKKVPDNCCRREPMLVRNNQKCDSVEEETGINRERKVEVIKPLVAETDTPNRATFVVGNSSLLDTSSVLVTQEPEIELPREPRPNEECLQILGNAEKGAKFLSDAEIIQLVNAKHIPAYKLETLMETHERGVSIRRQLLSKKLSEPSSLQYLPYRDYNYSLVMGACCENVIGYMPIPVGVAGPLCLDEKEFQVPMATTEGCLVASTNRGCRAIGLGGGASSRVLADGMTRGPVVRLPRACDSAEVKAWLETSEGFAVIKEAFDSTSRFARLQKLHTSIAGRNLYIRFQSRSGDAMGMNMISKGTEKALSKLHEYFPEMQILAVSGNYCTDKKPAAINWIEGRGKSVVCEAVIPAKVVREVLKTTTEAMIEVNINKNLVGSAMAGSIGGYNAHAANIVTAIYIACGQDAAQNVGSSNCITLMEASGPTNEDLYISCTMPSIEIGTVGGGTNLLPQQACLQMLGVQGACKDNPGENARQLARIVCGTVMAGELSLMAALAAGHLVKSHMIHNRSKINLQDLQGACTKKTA
# EXPERIMENT DESCRIPTION: Inhibition of HMG-CoA reductase (unknown origin)
RESULT TYPE: IC50 (µM)
Write the number in µM without appending the unit.

* C/C(=C\CC[C@@H](C)[C@H]1C[C@H](O)[C@@]2(C)C3=CC[C@H]4C(C)(C)C(=O)CC[C@]4(C)C3=CC[C@]12C)C(=O)O | 21.7

// IC50 lookup, compound = C/C(=C\CC[C@@H](C)[C@H]1CC[C@@]2(C)C3=C(CC[C@]12C)[C@@]1(C)CC[C@H](O)C(C)(C)[C@@H]1CC3=O)C(=O)O , result: 22.3

---

# EXPERIMENT DESCRIPTION: Inhibition of Baker's yeast alpha-glucosidase
# Design: species or system Saccharomyces cerevisiae
pIC50: −log10 of the molar value.
RESULT TYPE: pIC50

Solved cases below.
- CC(=O)O[C@H]1C(=O)C2=C(C(=O)C[C@H]3[C@](C)(CO)C(=O)CC[C@]23C)[C@]2(C)C(=O)C[C@H]([C@H](C)CC/C=C(\C)C(=O)O)[C@@]12C: < 4.30
- C/C(=C/CC[C@@H](C)[C@H]1CC[C@@]2(C)C3=C(C(O)C[C@]12C)[C@@]1(C)CCC(=O)C(C)(C)[C@@H]1CC3=O)C(=O)O (stereo partly drawn): < 4.30

Next item in the queue.
The reported pIC50 of the compound C[C@H](CC[C@H](O)[C@](C)(O)CO)[C@H]1CC[C@@]2(C)C3=CC[C@H]4C(C)(C)C(=O)CC[C@]4(C)C3=CC[C@]12C was < 4.30

---

A collection of molecules and their measured pIC50
# EXPERIMENT DESCRIPTION: Inhibition of Baker's yeast alpha-glucosidase
# Parameters: species or system Saccharomyces cerevisiae
// scale note: pIC50 = -log10(conc_M); give the bare number

• CC(C)=CCC/C(C)=C/CC/C(=C/Cc1cc(O)ccc1O)C(=O)OC[C@@](C)(O)[C@@H](O)CC[C@@H](C)[C@H]1CC[C@@]2(C)C3=C(CC[C@]12C)[C@@]1(C)CCC(=O)C(C)(C)[C@@H]1CC3=O = 5.23
• C/C(=C\CC[C@@H](C)[C@H]1CC(=O)[C@@]2(C)C3=C(C(=O)[C@H](O)[C@]12C)[C@@]1(C)CCC(=O)[C@@](C)(CO)[C@@H]1C[C@@H]3O)C(=O)O = 4.90
• C/C(=C\CC[C@@H](C)[C@H]1CC[C@@]2(C)C3=C(CC[C@]12C)[C@@]1(C)CCC(=O)C(C)(C)[C@@H]1CC3=O)CO = 4.86
• CC(C)=CCC/C(C)=C/CC/C(=C/Cc1cc(O)ccc1O)C(=O)OC[C@@](C)(O)[C@@H](O)CC[C@@H](C)[C@H]1CC[C@@]2(C)C3=CC[C@H]4C(C)(C)C(=O)CC[C@]4(C)C3=CC[C@]12C = 4.87

// next item, pIC50 requested
Reported pIC50 for C[C@H]1O[C@H](O[C@H]2[C@H](O)[C@@H](O)[C@@H](O[C@H]3[C@H](O)[C@@H](O)C(O)O[C@@H]3CO)O[C@@H]2CO)[C@H](O)[C@@H](O)[C@@H]1N[C@H]1C=C(CO)[C@@H](O)[C@H](O)[C@H]1O (stereo not given in full) was 3.56

---

# EXPERIMENT DESCRIPTION: Inhibition of alpha-glucosidase in rat intestinal mucosa pre-incubated for 40 mins using p-nitrophenyl-alpha-D-glucopyranoside substrate
# Format: tissue-based
RESULT TYPE: pIC50
A value of pIC50 is the negative decimal logarithm of a concentration given in moles per litre.

A selection of reference data follows.
* CC(C)=CCC/C(C)=C/CC/C(=C/Cc1cc(O)ccc1O)C(=O)OC[C@@](C)(O)[C@@H](O)CC[C@@H](C)[C@H]1CC[C@@]2(C)C3=CC[C@H]4C(C)(C)C(=O)CC[C@]4(C)C3=CC[C@]12C | 5.82
* CC(C)=CCC/C(C)=C/CC/C(=C/Cc1cc(O)ccc1O)C(=O)O[C@@H](CC[C@@H](C)[C@H]1CC[C@@]2(C)C3=CC[C@H]4C(C)(C)C(=O)CC[C@]4(C)C3=CC[C@]12C)[C@](C)(O)CO | 5.09

From here, focus on the item given below.
pIC50 in this record for CC(C)=CCC/C(C)=C/CC/C(=C/Cc1cc(O)ccc1O)C(=O)OC[C@@](C)(O)[C@@H](O)CC[C@@H](C)[C@H]1CC[C@@]2(C)C3=C(CC[C@]12C)[C@@]1(C)CCC(=O)C(C)(C)[C@@H]1CC3=O : 5.03
